Each entry below carries its recorded % Rmax hCD32a-R131.
# TARGET UNDER TEST: T1, CD32a-R131 (FcgRIIa-R131) (Homo sapiens, UniProt P12318, H167R)
# T1 sequence (P12318 34-217 H167R limits assumed): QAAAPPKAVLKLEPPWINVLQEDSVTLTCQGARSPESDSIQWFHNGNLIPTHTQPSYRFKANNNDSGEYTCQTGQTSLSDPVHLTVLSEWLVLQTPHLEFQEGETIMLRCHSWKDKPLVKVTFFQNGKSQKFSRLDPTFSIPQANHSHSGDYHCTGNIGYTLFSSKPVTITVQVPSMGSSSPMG
# ASSAY NOTES: SPR, antibody binding to anti-his Fab captured FcgR-his (% Rmax)
# CONDITIONS: 1 μM antibody
Answers without a unit are incomplete; give the number and then its unit.

mAb8-IgG2.5 (protein, left off: another chain or arm of the molecule) constant: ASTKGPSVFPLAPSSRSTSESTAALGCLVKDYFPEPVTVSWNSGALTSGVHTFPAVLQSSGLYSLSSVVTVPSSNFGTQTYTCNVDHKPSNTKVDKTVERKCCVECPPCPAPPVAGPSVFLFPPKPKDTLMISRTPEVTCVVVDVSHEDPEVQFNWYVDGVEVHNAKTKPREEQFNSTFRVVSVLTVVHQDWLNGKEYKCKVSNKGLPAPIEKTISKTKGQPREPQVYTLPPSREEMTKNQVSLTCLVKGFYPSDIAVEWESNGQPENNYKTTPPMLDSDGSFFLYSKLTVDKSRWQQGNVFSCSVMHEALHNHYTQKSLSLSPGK
14%
mAb5-IgG2.3 (protein, left off: another chain or arm of the molecule) constant: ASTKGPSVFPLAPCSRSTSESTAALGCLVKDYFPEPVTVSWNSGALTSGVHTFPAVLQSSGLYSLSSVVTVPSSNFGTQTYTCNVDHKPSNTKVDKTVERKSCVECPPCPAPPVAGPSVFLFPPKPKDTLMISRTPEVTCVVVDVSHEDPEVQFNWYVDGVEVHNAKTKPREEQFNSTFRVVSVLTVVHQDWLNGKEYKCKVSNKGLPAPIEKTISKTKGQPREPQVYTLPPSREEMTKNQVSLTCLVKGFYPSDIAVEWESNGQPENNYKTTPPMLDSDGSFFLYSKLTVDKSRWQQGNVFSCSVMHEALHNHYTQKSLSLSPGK
30%
mAb5-IgG2.5 (protein, left off: another chain or arm of the molecule) constant: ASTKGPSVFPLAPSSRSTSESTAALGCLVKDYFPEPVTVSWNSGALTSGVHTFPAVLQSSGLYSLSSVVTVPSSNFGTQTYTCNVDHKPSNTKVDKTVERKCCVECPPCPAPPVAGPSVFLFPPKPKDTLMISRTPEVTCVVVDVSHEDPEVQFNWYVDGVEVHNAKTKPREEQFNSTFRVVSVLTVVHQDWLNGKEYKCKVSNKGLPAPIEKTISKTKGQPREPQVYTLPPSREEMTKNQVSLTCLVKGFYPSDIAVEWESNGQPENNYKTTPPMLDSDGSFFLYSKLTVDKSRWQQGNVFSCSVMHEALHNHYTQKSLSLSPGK
26%
mAb10-IgG2.5 (protein, left off: another chain or arm of the molecule) constant: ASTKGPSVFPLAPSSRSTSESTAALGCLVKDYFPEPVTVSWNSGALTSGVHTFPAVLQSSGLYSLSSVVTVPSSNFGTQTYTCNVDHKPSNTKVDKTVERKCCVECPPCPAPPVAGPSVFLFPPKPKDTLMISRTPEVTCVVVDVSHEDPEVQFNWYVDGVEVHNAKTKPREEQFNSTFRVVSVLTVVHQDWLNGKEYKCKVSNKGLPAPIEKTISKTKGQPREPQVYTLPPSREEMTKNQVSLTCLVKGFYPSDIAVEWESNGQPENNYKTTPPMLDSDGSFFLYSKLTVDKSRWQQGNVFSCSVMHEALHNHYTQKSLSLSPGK
5%
mAb10-IgG2.3G1-AY-V27 (protein, left off: another chain or arm of the molecule) constant: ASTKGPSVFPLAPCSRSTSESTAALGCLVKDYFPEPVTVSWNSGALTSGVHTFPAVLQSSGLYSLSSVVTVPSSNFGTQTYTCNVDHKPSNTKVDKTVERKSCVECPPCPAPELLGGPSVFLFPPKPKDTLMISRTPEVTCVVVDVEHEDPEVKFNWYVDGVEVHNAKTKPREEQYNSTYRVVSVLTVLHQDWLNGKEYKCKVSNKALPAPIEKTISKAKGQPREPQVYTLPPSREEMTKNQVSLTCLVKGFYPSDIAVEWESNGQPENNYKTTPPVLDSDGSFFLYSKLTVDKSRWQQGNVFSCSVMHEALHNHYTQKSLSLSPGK
57%
mAb6-IgG2.5 (protein, left off: another chain or arm of the molecule) constant: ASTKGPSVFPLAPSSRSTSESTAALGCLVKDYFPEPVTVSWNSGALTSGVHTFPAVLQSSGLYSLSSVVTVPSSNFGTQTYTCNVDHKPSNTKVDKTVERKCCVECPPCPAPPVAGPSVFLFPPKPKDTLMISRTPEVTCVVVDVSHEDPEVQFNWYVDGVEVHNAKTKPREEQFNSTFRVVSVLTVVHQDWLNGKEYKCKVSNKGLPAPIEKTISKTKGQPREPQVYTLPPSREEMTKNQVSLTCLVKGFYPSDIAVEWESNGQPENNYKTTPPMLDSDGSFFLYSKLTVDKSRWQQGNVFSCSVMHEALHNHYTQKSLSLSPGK
17%

// next entry
IN: Output measured % Rmax hCD32a-R131 for this item: mAb7-IgG2.5G1-AY-V27 (protein, left off: another chain or arm of the molecule) constant: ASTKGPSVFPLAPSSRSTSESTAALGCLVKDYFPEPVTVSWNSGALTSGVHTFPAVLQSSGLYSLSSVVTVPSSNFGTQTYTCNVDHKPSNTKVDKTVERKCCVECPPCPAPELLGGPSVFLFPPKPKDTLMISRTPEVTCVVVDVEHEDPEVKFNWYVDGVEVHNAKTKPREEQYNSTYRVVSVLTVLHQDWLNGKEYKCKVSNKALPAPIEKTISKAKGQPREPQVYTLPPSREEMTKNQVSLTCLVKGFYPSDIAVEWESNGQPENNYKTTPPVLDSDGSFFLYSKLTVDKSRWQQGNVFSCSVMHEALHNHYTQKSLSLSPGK
OUT: 89%
